# Tested on: HuCCT-1;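 also: growth inhibition of HuCCT-1 cells, read out by a cell viability assay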
# experiment.summary: cells
# Type: functional, cell-based, Homo sapiens, HuCCT1
# experimental.context: Homo sapiens, HuCCT-1
# Description: SANGER: Inhibition of human HuCCT1 cell growth in a cell viability assay.
pIC50: −log10 of the molar value.
Examples of compounds with documented pIC50 follow.

{"columns": ["mol.smiles", "qualifier", "pIC50"],
 "data": [
  ["C=CCc1cccc(/C=N/NC(=O)CN2CCN(Cc3ccccc3)CC2)c1O", "=", 5.84],
  ["O=C1N=C(NCc2cccs2)S/C1=C\\c1ccc2ncccc2c1", "<", 5.30],
  ["C=CCNC1=C2C[C@@H](C)C[C@H](OC)[C@H](O)[C@@H](C)/C=C(\\C)[C@H](OC(N)=O)[C@@H](OC)/C=C\\C=C(/C)C(=O)NC(=CC1=O)C2=O", "=", 6.49],
  ["Cc1cnc(-c2cnc(NCCNc3ccc(C#N)cn3)nc2-c2ccc(Cl)cc2Cl)[nH]1", "<", 5.59]
]}

====

# System: KYSE-520 cell line;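 also: growth inhibition of human KYSE-520 cells, read out with a viability assay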
# experiment.summary: cells
# Type: functional, cell-based, Homo sapiens
# experimental.context: Homo sapiens, KYSE-520
# Description: SANGER: Inhibition of human KYSE-520 cell growth in a cell viability assay.
pIC50: −log10 of the molar value.
measured.endpoint: pIC50

{"columns": ["compound", "endpoint.result"],
 "data": [
  ["COc1ccc(C2=N[C@@H](c3ccc(Cl)cc3)[C@@H](c3ccc(Cl)cc3)N2C(=O)N2CCNC(=O)C2)c(OC(C)C)c1 [NUTLIN-3]", "< 5.10"],
  ["Cc1ccc(Nc2nccc(N(C)c3ccc4c(C)n(C)nc4c3)n2)cc1S(N)(=O)=O [PAZOPANIB]", "< 5.10"],
  ["COC(=O)CNC(=O)C(=O)OC", 3.21],
  ["Cc1cc([C@@H](C)Nc2ccccc2C(=O)O)c2nc(N3CCOCC3)cc(=O)n2c1 [AZD-6482]", "< 5.29"],
  ["CN(C)C/C=C/C(=O)Nc1cc2c(Nc3ccc(F)c(Cl)c3)ncnc2cc1O[C@H]1CCOC1 [AFATINIB]", "< 6.30"]
]}

====

# Tested on: SK-HEP1;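 also: cell viability readout used to quantify reduction in proliferation of human SK-HEP-1 cells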
# experiment.summary: cells
# Format: functional, cell-based, Homo sapiens, SK-HEP-1
# experimental.context: Homo sapiens, SK-HEP1
# Description: SANGER: Inhibition of human SK-HEP-1 cell growth in a cell viability assay.
List of IC50 values.

{"columns": ["molecule", "qualifier", "IC50 [nM]"],
 "data": [
  ["O=C1N=C(NCc2cccs2)S/C1=C\\c1ccc2ncccc2c1", ">", 5000],
  ["CCC1=C[C@@H]2CN(C1)Cc1c([nH]c3ccccc13)[C@@](C(=O)OC)(c1cc3c(cc1OC)N(C)[C@H]1[C@@](O)(C(=O)OC)[C@H](OC(C)=O)[C@]4(CC)C=CCN5CC[C@]31[C@@H]54)C2", "=", 4.52],
  ["COc1cc(F)c(F)c(Nc2ccc(I)cc2F)c1NS(=O)(=O)C1(CC(O)CO)CC1 (centres undefined)", "=", 2050],
  ["Cc1cc([C@@H](C)Nc2ccccc2C(=O)O)c2nc(N3CCOCC3)cc(=O)n2c1", ">", 5120]
]}

====

# Test system: YT
# experiment.summary: cells
# Assay type: functional, cell-based
# experimental.context: Homo sapiens
# Description: SANGER: Inhibition of human YT cell growth in a cell viability assay.
pIC50: −log10 of the molar value.
// reported pIC50 for each item listed

{"columns": ["compound", "pIC50"],
 "data": [
  ["CN1CCN(CCOc2cc(OC3CCOCC3)c3c(Nc4c(Cl)ccc5c4OCO5)ncnc3c2)CC1", "< 5.70"],
  ["CN(c1ncccc1CNc1nc(Nc2ccc3c(c2)CC(=O)N3)ncc1C(F)(F)F)S(C)(=O)=O", "< 5.59"],
  ["C=C1C(=O)O[C@@H]2C3O[C@]3(C)CC/C=C(\\C)CC[C@@H]12 (stereo partly specified)", "< 5.30"],
  ["CO[C@H]1C[C@@H]2CC[C@@H](C)[C@@](O)(O2)C(=O)C(=O)N2CCCC[C@H]2C(=O)O[C@H]([C@H](C)C[C@@H]2CC[C@@H](O)[C@H](OC)C2)CC(=O)[C@H](C)/C=C(\\C)[C@@H](O)[C@@H](OC)C(=O)[C@H](C)C[C@H](C)/C=C/C=C/C=C/1C", "< 7.00"],
  ["Cc1cnc(-c2cnc(NCCNc3ccc(C#N)cn3)nc2-c2ccc(Cl)cc2Cl)[nH]1", "< 5.59"],
  ["CNC(=O)c1cc(Oc2ccc(NC(=O)Nc3ccc(Cl)c(C(F)(F)F)c3)cc2)ccn1", "< 5.40"]
]}

====

The reader will find reported IC50 values listed item by item below.
# Tested on: HuP-T4;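 also: cell viability assay measuring how much HuP-T4 cell growth is inhibited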
# experiment.summary: cells
# Assay type: functional, cell-based, Homo sapiens
# experimental.context: Homo sapiens, HuP-T4
# Description: SANGER: Inhibition of human HuP-T4 cell growth in a cell viability assay.
measured.endpoint: IC50

{"columns": ["compound", "measured.endpoint", "endpoint.result"],
 "data": [
  ["C=CCc1cccc(/C=N/NC(=O)CN2CCN(Cc3ccccc3)CC2)c1O [PAC-1]", "IC50", "> 2.56 µM"],
  ["O=C(NOCC1CC1)c1ccc(F)c(F)c1Nc1ccc(I)cc1Cl [CI-1040]", "IC50", "1.18 µM"],
  ["CN(Cc1cnc2nc(N)nc(N)c2n1)c1ccc(C(=O)N[C@@H](CCC(=O)O)C(=O)O)cc1 [METHOTREXATE]", "IC50", "> 0.2 µM"],
  ["CCOc1nc(NC(=O)Cc2cc(OC)ccc2OC)cc(N)c1C#N", "IC50", "> 10 µM"],
  ["Nc1ccn([C@@H]2O[C@H](CO)[C@@H](O)[C@@H]2O)c(=O)n1 [CYTARABINE]", "IC50", "0.237 µM"],
  ["O=C(c1cc(Cc2n[nH]c(=O)c3ccccc23)ccc1F)N1CCN(C(=O)C2CC2)CC1 [OLAPARIB]", "IC50", "> 5 µM"],
  ["O=c1cc(-c2cccc3c2Sc2ccccc2S3)oc(N2CCOCC2)c1 [KU-55933]", "IC50", "> 10 µM"],
  ["COC(=O)CNC(=O)C(=O)OC", "IC50", "128 µM"]
]}

====

# System: CAL-12T;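 also: growth inhibition of human CAL-12T cells, read out with a cell viability assay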
# experiment.summary: cells
# Format: functional, cell-based, Homo sapiens
# experimental.context: Homo sapiens, CAL-12T
# Description: SANGER: Inhibition of human CAL-12T cell growth in a cell viability assay.
pIC50: −log10 of the molar value.

{"columns": ["molecule", "assay.system", "pIC50"],
 "data": [
  ["COc1ccc(C2=N[C@@H](c3ccc(Cl)cc3)[C@@H](c3ccc(Cl)cc3)N2C(=O)N2CCNC(=O)C2)c(OC(C)C)c1 [NUTLIN-3]", "CAL-12T", "< 5.10"],
  ["Nc1ccn([C@@H]2O[C@H](CO)[C@@H](O)[C@@H]2O)c(=O)n1 [CYTARABINE]", "CAL-12T", "< 5.70"],
  ["O=c1cc(-c2cccc3c2Sc2ccccc2S3)oc(N2CCOCC2)c1 [KU-55933]", "CAL-12T", "< 5.00"],
  ["CN(C)C/C=C/C(=O)Nc1cc2c(Nc3ccc(F)c(Cl)c3)ncnc2cc1O[C@H]1CCOC1 [AFATINIB]", "CAL-12T", "< 6.30"],
  ["COc1cc(F)c(F)c(Nc2ccc(I)cc2F)c1NS(=O)(=O)C1(CC(O)CO)CC1 (stereo unspecified)", "CAL-12T", 5.97],
  ["CCOc1nc(NC(=O)Cc2cc(OC)ccc2OC)cc(N)c1C#N", "CAL-12T", "< 5.00"]
]}

====

# Test system: KE-37
# experiment.summary: cells
# Format: functional, cell-based
# experimental.context: Homo sapiens
# Description: SANGER: Inhibition of human KE-37 cell growth in a cell viability assay.
pIC50: −log10 of the molar value.
Readings of pIC50 for the listed compounds

{"columns": ["mol.smiles", "qualifier", "pIC50"],
 "data": [
  ["COc1ccc(-c2ccc3c(N4CCOC[C@@H]4C)nc(N4CCOC[C@@H]4C)nc3n2)cc1CO", "=", 6.36],
  ["CCc1nc(N)nc(N)c1-c1ccc(Cl)cc1", "=", 4.99],
  ["CCC1=C[C@@H]2CN(C1)Cc1c([nH]c3ccccc13)[C@@](C(=O)OC)(c1cc3c(cc1OC)N(C)[C@H]1[C@@](O)(C(=O)OC)[C@H](OC(C)=O)[C@]4(CC)C=CCN5CC[C@]31[C@@H]54)C2", "=", 8.35],
  ["O=C(c1cc(Cc2n[nH]c(=O)c3ccccc23)ccc1F)N1CCN(C(=O)C2CC2)CC1", "<", 5.30],
  ["Cc1ccc(Nc2nccc(N(C)c3ccc4c(C)n(C)nc4c3)n2)cc1S(N)(=O)=O", "<", 5.10]
]}

====

# System: NB69;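 also: growth inhibition of NB69 cells, determined by a cell viability assay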
# experiment.summary: cells
# Assay type: functional, cell-based, Homo sapiens
# experimental.context: Homo sapiens, NB69
# Description: SANGER: Inhibition of human NB69 cell growth in a cell viability assay.

{"columns": ["molecule", "assay.system", "IC50"],
 "data": [
  ["CCOc1nc(NC(=O)Cc2cc(OC)ccc2OC)cc(N)c1C#N", "NB69", "> 10 µM"],
  ["Cc1ccc(Nc2nccc(N(C)c3ccc4c(C)n(C)nc4c3)n2)cc1S(N)(=O)=O", "NB69", "> 8 µM"],
  ["CN(C)C/C=C/C(=O)Nc1cc2c(Nc3ccc(F)c(Cl)c3)ncnc2cc1O[C@H]1CCOC1", "NB69", "> 0.5 µM"],
  ["COc1cc(F)c(F)c(Nc2ccc(I)cc2F)c1NS(=O)(=O)C1(CC(O)CO)CC1 (stereo not drawn)", "NB69", "0.557 µM"],
  ["O=C(/C=C/c1ccccc1)NC(NC(=S)Nc1cccc2cccnc12)C(Cl)(Cl)Cl (stereo not drawn)", "NB69", "> 16 µM"],
  ["CC(=O)O[C@@H]1[C@@H](OC(C)=O)[C@@H](O)[C@H](Oc2c(-c3ccc(O)cc3)oc3cc(O)cc(O)c3c2=O)O[C@H]1C", "NB69", "> 10 µM"],
  ["COc1ccc(C2=N[C@@H](c3ccc(Cl)cc3)[C@@H](c3ccc(Cl)cc3)N2C(=O)N2CCNC(=O)C2)c(OC(C)C)c1", "NB69", "2.65 µM"],
  ["O=C1N=C(NCc2cccs2)S/C1=C\\c1ccc2ncccc2c1", "NB69", "> 5 µM"]
]}
